# STUDY_TARGET: BRD4 (Homo sapiens, UniProt O60885)
# EXPERIMENT_SUMMARY: Time resolved fluorescence resonance energy transfer (TR-FRET) binding assay, bromodomain BRD4
# TEST_CONDITIONS: one of the FRET assays described; read-out: FRET BRD4 IC50
pIC50: −log10 of the molar value.
This section presents molecules with their documented pIC50 values.
MEASURED_PARAMETER: pIC50

>>> test_value("COc1nc(Cl)cc2c1c1ncc(-c3c(C)nnn3C)cc1n2C(c1ncccc1O)C1CCOCC1 (stereo not drawn) [Example 306]")
"> 8.00"
>>> test_value("CC(=O)c1cnc2c3ccc(-c4c(C)nnn4C)nc3n([C@@H](c3ccccc3)C3CCOCC3)c2c1 [Example 377]")
"> 8.00"
>>> test_value("[2H]C([2H])([2H])c1nnn(C)c1-c1cnc2c3ccc(N4C[C@@H](C)O[C@@H](C)C4)nc3n([C@H](c3ccccc3F)C3CCOCC3)c2c1 [Example 237]")
"> 9.00"
>>> test_value("Cc1nnn(C)c1-c1cnc2c3ccc(N4CC(C)S(=O)(=O)C(C)C4)nc3n([C@H](c3ccccc3)C3CCOCC3)c2c1 (single isomer, unassigned) [Example 190]")
"> 9.00"
>>> test_value("Cc1nnn(C)c1-c1cnc2c3ccc(NC(=O)C4CC4)nc3n([C@H](c3ccccc3F)C3CCOCC3)c2c1 [Example 276]")
"> 8.00"
>>> test_value("COc1ncc(S(C)(=O)=O)c2c1c1ncc(-c3c(C)nnn3C)cc1n2[C@H](c1ccc(F)cc1)C1CCOCC1 [Example 52]")
"> 9.00"

====

This section presents compounds with their documented pIC50 values.
# STUDY_TARGET: BRD4 (Homo sapiens, UniProt O60885)
# EXPERIMENT_SUMMARY: Time resolved fluorescence resonance energy transfer (TR-FRET) binding assay, bromodomain BRD4
# TEST_CONDITIONS: one of the FRET assays described; read-out: FRET BRD4 IC50
pIC50: −log10 of the molar value.
MEASURED_PARAMETER: pIC50

>>> test_value("Cc1noc(C)c1-c1cc2c(cn1)c1ncc(C(C)(C)O)cc1n2[C@H](c1ccccc1)C1CCOCC1 [Example 369]")
"> 8.00"
>>> test_value("Cc1nnn(C)c1-c1cnc2c3cnc(-c4c(C)nnn4C)nc3n([C@H](c3ccccc3)C3CCOCC3)c2c1 [Example 155]")
"> 8.00"
>>> test_value("C=C(OCC)c1cc2c(cn1)c1ncc(-c3c(C)noc3C)cc1n2[C@H](c1ccc(F)cc1)C1CCOCC1 [Example 329]")
"> 8.00"
>>> test_value("CNS(=O)(=O)c1ccc2c3ncc(-c4c(C)nnn4C)cc3n([C@H](c3ccccc3)C3CCOCC3)c2n1 [Example 199]")
"> 8.00"
>>> test_value("[2H]C([2H])([2H])c1nnn(C)c1-c1cnc2c3cnc(S(C)(=O)=O)cc3n([C@H](c3ccccc3)C3CCOCC3)c2c1 [Example 201]")
"> 8.00"
>>> test_value("[2H]C([2H])([2H])c1nnn(C)c1-c1cnc2c3c(OCC)ncc(S(C)(=O)=O)c3n(C(c3ncccc3F)C3CCC(F)(F)CC3)c2c1 (stereo not drawn) [Example 75]")
"> 5.82"

====

# STUDY_TARGET: BRD4 (Homo sapiens, UniProt O60885)
# EXPERIMENT_SUMMARY: Time resolved fluorescence resonance energy transfer (TR-FRET) binding assay, bromodomain BRD4
# TEST_CONDITIONS: one of the FRET assays described; read-out: FRET BRD4 IC50
MEASURED_PARAMETER: IC50

>>> test_value("[2H]C([2H])([2H])c1nnn(C)c1-c1cnc2c3c(OC)nc(C(C)=O)cc3n([C@@H](c3ncccc3F)C3CCOCC3)c2c1 [Example 310]")
"< 10 nM"
>>> test_value("CC(=O)c1cnc2c3ccc(-c4c(C)nnn4C)nc3n([C@H](c3ccccc3)C3CCOCC3)c2c1 [Example 379]")
"< 1 nM"
>>> test_value("Cc1nnn(C)c1-c1cnc2c3ccc(S(C)(=O)=O)nc3n([C@H](c3ccccc3F)C3CCOCC3)c2c1 [Example 221]")
"< 10 nM"
>>> test_value("Cc1nnn(C)c1-c1cnc2c3ccc(N4CCN(C)CC4)nc3n([C@H](c3ccccc3F)C3CCOCC3)c2c1 [Example 231]")
"< 10 nM"
>>> test_value("Cc1noc(C)c1-c1cnc2c3cnc(Cl)cc3n(C(c3ccc(Cl)cn3)C3CCOCC3)c2c1 (single isomer, unassigned) [Example 328]")
"< 10 nM"
>>> test_value("[2H]C([2H])([2H])c1nnn(C)c1-c1cnc2c3cnc(Cl)cc3n(C(c3ncccc3F)C3CCOCC3)c2c1 (single isomer, unassigned) [Example 321]")
"< 10 nM"
>>> test_value("[2H]C([2H])([2H])c1nnn(C)c1-c1cnc2c3c(OC)nc(C(C)(C)O)cc3n(C(c3ccccc3)C3CCC(F)(F)CC3)c2c1 (centres unmarked) [Example 345]")
"< 1 nM"
>>> test_value("[2H]C([2H])([2H])c1nnn(C)c1-c1cnc2c3c(OCC4CC4)ncc(S(C)(=O)=O)c3n([C@H](c3ccc(F)cc3)C3CCOCC3)c2c1 [Example 78]")
"< 1 nM"
>>> test_value("Cc1nnn(C)c1-c1cnc2c3ccc(Cl)nc3n([C@H](c3ccccc3)C3CCOCC3)c2c1 [Example 14]")
"< 10 nM"
>>> test_value("Cc1nnn(C)c1-c1cnc2c3ccnc(OCCN(C)C)c3n([C@H](c3ccccc3)C3CCOCC3)c2c1 [Example 10]")
"< 10 nM"
>>> test_value("[2H]C([2H])([2H])c1nnn(C)c1-c1cnc2c3cnc(OCC4CC4)cc3n([C@H](c3ccccc3)C3CCOCC3)c2c1 [Example 288]")
"< 1 nM"
>>> test_value("[2H]C([2H])([2H])c1nnn(C)c1-c1cnc2c3ccc(N4CCS(=O)(=O)CC4)nc3n([C@H](c3ccccc3)C3CCOCC3)c2c1 [Example 185]")
"< 10 nM"
>>> test_value("[2H]C([2H])([2H])c1nnn(C)c1-c1cnc2c3c(OC)nc(N4CCC(F)(F)CC4)cc3n([C@H](c3ccccc3)C3CCOCC3)c2c1 [Example 343]")
"< 1 nM"
>>> test_value("Cc1nnn(C)c1-c1cnc2c3cnc(Cl)cc3n([C@H](c3ccc(F)cc3)C3CCOCC3)c2c1 [Example 322]")
"< 10 nM"

====

# STUDY_TARGET: BRD4 (Homo sapiens, UniProt O60885)
# EXPERIMENT_SUMMARY: Time resolved fluorescence resonance energy transfer (TR-FRET) binding assay, bromodomain BRD4
# TEST_CONDITIONS: one of the FRET assays described; read-out: FRET BRD4 IC50
This section presents molecules with their documented IC50 values.
MEASURED_PARAMETER: IC50

>>> test_value("[2H]C([2H])([2H])c1nnn(C)c1-c1cnc2c3cc(C(=O)OC)cnc3n([C@H](c3ccccc3)C3CCOCC3)c2c1")
"< 10 nM"
>>> test_value("Cc1nnn(C)c1-c1cnc2c3ccc(C(C)O)nc3n([C@H](c3ccccc3)C3CCOCC3)c2c1 (stereo partly shown)")
"< 10 nM"
>>> test_value("[2H]C([2H])([2H])c1nnn(C)c1-c1cnc2c3ccc(N4CCN(C([2H])([2H])[2H])CC4)nc3n([C@H](c3ccccc3)C3CCOCC3)c2c1")
"< 10 nM"
>>> test_value("[2H]C([2H])([2H])c1nnn(C)c1-c1cnc2c3c(OCC(F)F)ncc(S(C)(=O)=O)c3n([C@H](c3ccccc3)C3CCOCC3)c2c1")
"< 1 nM"

====

This section presents compounds with their documented IC50 values.
# STUDY_TARGET: BRD4 (Homo sapiens, UniProt O60885)
# EXPERIMENT_SUMMARY: Time resolved fluorescence resonance energy transfer (TR-FRET) binding assay, bromodomain BRD4
# TEST_CONDITIONS: one of the FRET assays described; read-out: FRET BRD4 IC50
MEASURED_PARAMETER: IC50

>>> test_value("[2H]C([2H])([2H])c1nnn(C)c1-c1cc2c(cn1)c1ncc(C(C)(C)O)cc1n2[C@H](c1ccccc1)C1CCOCC1")
"< 10 nM"
>>> test_value("[2H]C([2H])([2H])c1nnn(C)c1-c1nc2c(cc1F)c1ncc(C(C)(C)O)cc1n2[C@H](c1ccccc1)C1CCOCC1")
"< 10 nM"
>>> test_value("Cc1nnn(C)c1-c1cnc2c3c(Cl)ncc(Cl)c3n([C@H](c3ccccc3)C3CCOCC3)c2c1")
"< 10 nM"
>>> test_value("Cc1noc(C)c1-c1ccc2c3ncc(-c4c(C)nnn4C)cc3n([C@H](c3ccccc3)C3CCOCC3)c2n1")
"< 10 nM"
>>> test_value("CCc1nnn(C)c1-c1cnc2c3cnc(C(C)(C)O)cc3n([C@H](c3ccccc3)C3CCOCC3)c2c1")
"< 10 nM"
>>> test_value("[2H]C([2H])([2H])c1nnn(C)c1-c1cnc2c3ccc(C(C)=O)nc3n([C@H](c3ccccc3)C3CCOCC3)c2c1")
"< 10 nM"
>>> test_value("C=C(C)c1ccc2c3ncc(-c4c(C)nnn4C)cc3n([C@H](c3ccccc3)C3CCOCC3)c2n1")
"< 10 nM"
>>> test_value("[2H]C([2H])([2H])c1nnn(C)c1-c1cnc2c3c(OC)nc(N(C)CCNC)cc3n([C@H](c3ncccc3F)C3CCOCC3)c2c1")
"< 1500 nM"
>>> test_value("[2H]C([2H])([2H])c1nnn(C)c1-c1cnc2c3ccc(C4CCS(=O)(=O)CC4)nc3n([C@H](c3ccccc3)C3CCOCC3)c2c1")
"< 10 nM"
>>> test_value("[2H]C([2H])([2H])c1nnn(C)c1-c1cnc2c3c(OC)cncc3n([C@H](c3ccccc3)C3CCOCC3)c2c1")
"< 1 nM"
>>> test_value("COc1ncc(C(C)(C)O)c2c1c1ncc(-c3c(C)nnn3C)cc1n2[C@H](c1ccccc1)C1CCOCC1")
"< 10 nM"
>>> test_value("[2H]C([2H])([2H])c1nnn(C)c1-c1cnc2c3ccc(N4CCN(CC(F)(F)F)CC4)nc3n([C@H](c3ccccc3)C3CCOCC3)c2c1")
"< 10 nM"
>>> test_value("Cc1nnn(C)c1-c1cnc2c3c(NCC4CC4)ncc(Cl)c3n([C@H](c3ccccc3)C3CCOCC3)c2c1")
"< 10 nM"
